Origin of measurements: patent US12024531B2

# TARGET_ENTITY: immunoproteasome LMP2 subunit (Homo sapiens)
# ASSAY_NOTES: Caliper-based proteasome enzymatic activity assay, LMP2
# COND: human recombinant immunoproteasome 0.3 nM, FAM peptide substrate 1 μM, rt 2 h
Listed here: items and their measured IC50.

For orientation, consider the following solved cases.
COMPOUND	IC50
COc1ccc(C=C(C#N)C(=O)N(C)C)cc1OCCC(=O)N[C@@H](Cc1ccccc1)B(O)O	310 nM
CC(C)N(C(=O)C(C#N)=Cc1cccc(CCOC(=O)N[C@@H](Cc2ccccc2)B(O)O)c1)C(C)C (single isomer, unassigned) [Example 74]	2750 nM
N#CC(=Cc1cccc(CCNC(=O)N[C@@H](Cc2ccccc2)B(O)O)c1)c1ccccn1	> 5000 nM

Now examine the next entry.
Query string: Entry COc1cccnc1C(C#N)=Cc1cccc(OCCC(=O)N[C@@H](Cc2ccccc2)B(O)O)c1 needs its IC50 filled in; supply it.
Result string: 306 nM
